Parameter: TGI. Scope: all listed entries.
- System: LOX IMVI melanoma
- ASSAY METHOD TEXT: NCI tumour cell line growth inhibition, 48 h

Some solved cases for reference:
{"columns": ["COMPOUND", "TGI"],
 "data": [
  ["O=C(c1ccc2ccccc2c1)c1c(C(F)(F)F)n([O-])c2ccc(C(F)(F)F)cc2[n+]1=O", "0.363 µM"],
  ["O=[N+]([O-])c1ccccc1N=Nc1c(O)[nH]c2cccc(C(F)(F)F)c12", "> 100 µM"],
  ["CCc1c(C#N)c(=O)[nH]c(=O)n1CCN1CCN(C(=O)NCCCCCCNC(=O)N2CCN(CCn3c(CC)c(C#N)c(=O)[nH]c3=O)CC2)CC1", "> 100 µM"],
  ["O=S(=O)(Nc1ccc(Br)cc1)c1ccc(-c2cnc(C3CC3)o2)cc1", "18 µM"],
  ["c1ccc(/C(=N/Nc2nc3ccccc3s2)C2CCCCC2)nc1", "54.3 µM"]
]}

Please find the next compound below.
Item O=C(O)CCNS(=O)(=O)c1ccc(NC(=O)c2ccccc2)cc1 ; assay system LOX IMVI melanoma; TGI reported as > 100 µM
